Below is a list of entries, each paired with its recorded relative signal [%] value.
- Assay System: monoclonal antibody mAB 198
- Measurement Description: peptide microarray, fluorescence, linear peptide

{"columns": ["Binder", "relative signal [%], %"],
 "data": [
  ["LRINPADYG", 12.6],
  ["QWIDVRLRFNP", 20.1],
  ["WNPADYR [WNPADYR, linear mimotope]", 40.6],
  ["CNLKFNP [CNLKFNP, linear mimotope]", 11]
]}
